Assay: Cytotoxicity against mouse NIH/3T3 cells assessed as cell viability at 10 umol/L after 2 hrs by MTT assay
Type: cell-based, NIH3T3
Settings: read-out: Activity
property: viability at 2 h, 10 µM (%)
All answers are understood in %, so give the number only.

Tell me measured viability at 2 h, 10 µM for CCCC[Se]1(Cl)c2ccccc2C[O+]1C.[Cl-] (stereo unspecified) please.
50

###

Assay: Cytotoxicity against mouse NIH/3T3 cells assessed as cell viability at 80 umol/L after 2 hrs by MTT assay
Assay type: cell-based, NIH3T3
Conditions: NIH/3T3 cells, read-out: Activity
property: viability at 2 h, 80 µM

Provide only the value of recorded viability at 2 h, 80 µM for CCCC[Te](Br)(Br)c1ccccc1COC
> 50%

###

Assay: Cytotoxicity against mouse NIH/3T3 cells assessed as cell viability at 0.5 to 10 umol/L after 2 hrs by MTT assay
Type: cell-based, NIH3T3
Conditions: read-out: Activity
property: viability at 2 h (%)
Reply with just the number (in %).

Give the measured viability at 2 h for CCCC[Te](Cl)(Cl)c1ccccc1COC
60

###

Organism: Equus caballus
Test: Inhibition of horse erythrocytes chymotrypsin like activity of beta5-20S proteasome using suc-LLVY-AMC as substrate at 100 uM measured for 60 mins by fluorescence assay
The source made the active and inactive calls. No cut-off for these calls is given here.
property: inhibition

Worked cases, answers included:
CCCC[Te](Cl)(Cl)c1ccccc1[C@@H](C)OC	inactive
CCCC[Se]1(Br)c2ccccc2C[O+]1C.[Br-] (configuration not stated)	inactive
CCCC[Se]1(Cl)c2ccccc2[C@@H](C)[O+]1C (some centres not stated)	inactive
CCCC[Te](Cl)(Cl)c1ccccc1[C@H](C)OC	inactive
CCCC[Te](Br)(Br)c1ccccc1COC	inactive

Specify reported inhibition for the compound shown: CCCC[Se]1(Cl)c2ccccc2C[O+]1C.[Cl-] (configuration not stated)
inactive

Provide one value: measured inhibition of CCCC[Te](Br)(Br)c1ccccc1[C@H](C)OC
inactive

Note down inhibition recorded for CCCC[Se]1(Br)c2ccccc2[C@@H](C)[O+]1C (some centres not stated)
inactive

Please give measured inhibition of the following entry: CCCC[Te](Br)(Br)c1ccccc1[C@@H](C)OC
inactive

Give recorded inhibition. CCCC[Se]1(Cl)c2ccccc2[C@H](C)[O+]1C (some centres not stated)
inactive

Supply recorded inhibition for CCCC[Se]1(Br)c2ccccc2[C@H](C)[O+]1C (some centres not stated) here.
inactive

Kindly indicate its recorded inhibition. Item: CCCC[Te](Cl)(Cl)c1ccccc1COC
inactive

###

Target: Proteasome subunit beta type-2 (Mus musculus) (UniProt Q9R1P3)
Sequence (Q9R1P3 whole entry): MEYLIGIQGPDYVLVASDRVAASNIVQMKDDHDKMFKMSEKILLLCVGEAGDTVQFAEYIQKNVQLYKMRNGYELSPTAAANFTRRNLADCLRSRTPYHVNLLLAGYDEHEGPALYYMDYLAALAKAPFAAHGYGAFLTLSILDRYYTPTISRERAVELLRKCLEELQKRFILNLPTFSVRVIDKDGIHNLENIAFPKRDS
Assay: Inhibition of trypsin like activity of beta2-20S proteasome in mouse NIH-3T3 cells at 2 times IC50
Type: cell-based
Details: NIH3T3
Calls of active or inactive are those of the source. No cut-off for these calls is given here.
Can you answer with just one of these options? 1.0 (active), 0.0 (inactive)

CCCC[Se]1(Br)c2ccccc2C[O+]1C.[Br-] (centres undefined)	1.0
CCCC[Te](Cl)(Cl)c1ccccc1COC	0.0
CCCC[Se]1(Cl)c2ccccc2C[O+]1C.[Cl-] (centres undefined)	1.0

We next turn to a different compound, shown below.
How did this test come out for CCCC[Te](Br)(Br)c1ccccc1COC ?
0.0

###

Species: Equus caballus
Assay: Inhibition of horse erythrocytes caspase like activity of beta1-20S proteasome using z-LLE-AMC as substrate at 100 uM measured for 60 mins by fluorescence assay
The source made the active and inactive calls. The calls are words filed in the database; no cut-off is given here.
property: inhibition

Worked set:
CCCC[Se]1(Br)c2ccccc2[C@H](C)[O+]1C (some centres not stated)	inactive
CCCC[Se]1(Br)c2ccccc2C[O+]1C.[Br-] (configuration not stated)	inactive
CCCC[Te](Br)(Br)c1ccccc1[C@H](C)OC	inactive
CCCC[Se]1(Br)c2ccccc2[C@@H](C)[O+]1C (some centres not stated)	inactive
CCCC[Se]1(Cl)c2ccccc2[C@@H](C)[O+]1C (some centres not stated)	inactive
CCCC[Se]1(Cl)c2ccccc2C[O+]1C.[Cl-] (configuration not stated)	inactive
CCCC[Se]1(Cl)c2ccccc2[C@H](C)[O+]1C (some centres not stated)	inactive
CCCC[Te](Cl)(Cl)c1ccccc1[C@H](C)OC	inactive

Provide measured inhibition value, entry: CCCC[Te](Br)(Br)c1ccccc1COC
inactive

Give the value of inhibition reported for the following: CCCC[Te](Cl)(Cl)c1ccccc1COC
inactive

Kindly indicate its recorded inhibition. Item: CCCC[Te](Cl)(Cl)c1ccccc1[C@@H](C)OC
inactive

Identify measured inhibition corresponding to CCCC[Te](Br)(Br)c1ccccc1[C@@H](C)OC
inactive

###

Assay: Cytotoxicity against mouse NIH/3T3 cells assessed as cell viability at 1 to 40 umol/L after 2 hrs by MTT assay
Type: cell-based, NIH3T3
Settings: read-out: Activity
property: viability at 2 h (%)
Hi! Could you send only the number? It should be in %, unit omitted.

Fill in reported viability at 2 h for this entry: CCCC[Te](Br)(Br)c1ccccc1COC
60

###

Species on record: Equus caballus
Experiment: Inhibition of horse erythrocytes trypsin like activity of beta2-20S proteasome using z-ARR-AMC as substrate at 100 uM measured for 60 mins by fluorescence assay
property: inhibition

In one line, give reported inhibition of the entry CCCC[Se]1(Br)c2ccccc2[C@H](C)[O+]1C (stereo not given in full) .
> 50%

###

Species: Equus caballus
Experiment: Inhibition of horse erythrocytes trypsin like activity of beta2-20S proteasome using z-ARR-AMC as substrate at 100 uM measured for 60 mins by fluorescence assay
Activity calls are given as the source filed them. No cut-off for these calls is given here.
property: inhibition

The examples below pair each entry with its known result.
CCCC[Te](Br)(Br)c1ccccc1[C@@H](C)OC	90%
CCCC[Te](Br)(Br)c1ccccc1[C@H](C)OC	> 50%
CCCC[Se]1(Br)c2ccccc2C[O+]1C.[Br-] (stereo not drawn)	90%
CCCC[Se]1(Cl)c2ccccc2[C@H](C)[O+]1C (stereo partly drawn)	> 50%
CCCC[Te](Br)(Br)c1ccccc1COC	90%

Could you now consider this next molecule?
Report inhibition, nothing else, for this molecule: CCCC[Se]c1ccccc1[C@@H](C)OC
inactive

###

Reported inhibition values follow for various compounds
Species: Equus caballus
Assay: Inhibition of horse erythrocytes trypsin like activity of beta2-20S proteasome using z-ARR-AMC as substrate at 100 uM measured for 60 mins by fluorescence assay

CCCC[Se]1(Cl)c2ccccc2[C@@H](C)[O+]1C (some centres undefined)	> 50%
CCCC[Se]1(Cl)c2ccccc2C[O+]1C.[Cl-] (centres undefined)	90%

// next item, inhibition requested
Complete the entry with inhibition for CCCC[Te](Cl)(Cl)c1ccccc1COC
90%

###

Organism: Equus caballus
Assay: Inhibition of horse erythrocytes trypsin like activity of beta2-20S proteasome using z-ARR-AMC as substrate at 100 uM measured for 60 mins by fluorescence assay
The source made the active and inactive calls. No cut-off for these calls is given here.
property: inhibition

Past entries and their recorded results:
CCCC[Se]1(Br)c2ccccc2[C@@H](C)[O+]1C (some centres not stated)	> 50%
CCCC[Se]c1ccccc1COC	inactive
CCCC[Te](Cl)(Cl)c1ccccc1[C@H](C)OC	> 50%
CCCC[Te]c1ccccc1[C@H](C)OC	inactive
CCCC[Te]c1ccccc1COC	inactive

# return recorded inhibition for entry CCCC[Te]c1ccccc1[C@@H](C)OC
inactive

Specify measured inhibition for CCCC[Te](Cl)(Cl)c1ccccc1[C@@H](C)OC .
> 50%
